# Test system: NCI/ADR-RES ovarian
# assay.explanation: NCI-60 one-dose screen, 48 h
# applied.conditions: 10 µM unless noted
About 83,000 compounds went through this panel and 20% of them were active in at least one assay; those are over-represented in the sample as a whole. Active and inactive are the calls of the source. How the source made its calls: active means growth percent below 10; inactive means the rest.
Give one outcome, nothing more. List: active, inactive

Enquiry: For `Cc1noc(C)c1C(=O)OCc1coc2ccccc2c1=O` , what call appears in the results of this test?
Return: inactive

Enquiry: For `O=C(Nc1nn(-c2ccc(Cl)cc2Cl)nc1-c1ccccc1)c1ccccc1` , what call appears in the results of this test?
Return: inactive

Enquiry: For `CO/N=C(/C)c1ccc(NC(=O)CSc2nnc(-c3ccncc3)n2-c2ccccc2)cc1` , what call appears in the results of this test?
Return: active

Enquiry: For Cc1cccc(N2CCN(CC(O)COc3ccc(Cl)cc3)CC2)c1 (stereo not given) , what call appears in the results of this test?
Return: inactive

Enquiry: For `OCc1cccc(-c2ccc3ncc(-c4nc(NC5CC5)ncc4F)n3c2)c1` , what call appears in the results of this test?
Return: active

Enquiry: For `Cc1ccc(-c2nc3nc(-c4ccccc4)nc(N4CCNCC4)c3o2)cc1` , what call appears in the results of this test?
Return: active

Enquiry: For `Cc1nc(-c2ccccc2)cc2c(O)c(C(=O)NN)[nH]c(=O)c12` , what call appears in the results of this test?
Return: inactive

Enquiry: For `C#Cc1ccc(NC(=O)c2ccc(/C=C/C(=O)c3nccn3C)cc2)cc1` , what call appears in the results of this test?
Return: active

Enquiry: For `O=C(Cn1c(=O)sc2ccccc21)NNS(=O)(=O)c1ccccc1[N+](=O)[O-]` , what call appears in the results of this test?
Return: inactive

Enquiry: For `CCN(CC)CCNC(=O)c1cn2ncnc(Oc3ccc(NC(=O)Nc4ccc(Cl)c(C(F)(F)F)c4)c(F)c3)c2c1C` , what call appears in the results of this test?
Return: inactive

Enquiry: For `CCCCCCCCCCCCCCCCCCOc1ccccc1CC(=O)OCC[N+]1(C)CCCC1` , what call appears in the results of this test?
Return: inactive

Enquiry: For CCc1ccc(C(=O)/C=C/C23c4ccccc4C(c4ccccc42)C2C(=O)NC(=O)C23)cc1 (stereo not given) , what call appears in the results of this test?
Return: active

Enquiry: For `O=C1Nc2ccc(Br)cc2/C1=N/c1n[nH]c(=S)s1` , what call appears in the results of this test?
Return: inactive

Enquiry: For `CC(C)(C)[Si](C)(C)O[C@H]1C(=O)C=CN2CC=C[C@@H]12` , what call appears in the results of this test?
Return: inactive

Enquiry: For `C=CCc1c2c(c(OC)c3ccoc13)C(=O)/C(=C/c1ccccc1OC)O2` , what call appears in the results of this test?
Return: inactive

----------
# Tested on: HOP-62 NSCLC
# assay.explanation: NCI-60 one-dose screen, 48 h (100 = growth as untreated, 0 = no growth, -100 = all killed)
# applied.conditions: 10 µM unless noted
Compounds without any hit were thinned out: in the full panel of roughly 83,000, 20% have a hit. Active and inactive are the calls of the source. How the source made its calls: active means growth percent below 10; inactive means the rest.
reported.property: growth

Enquiry: Param readout= growth; system= HOP-62 NSCLC; entry= `O=C(Nc1nc2ccc(F)cc2s1)c1cccnc1Nc1ccc(Cl)cc1` ; returns value.
Return: 75.6% (inactive)

Enquiry: Param readout= growth; system= HOP-62 NSCLC; entry= `Cc1cc(Cl)ccc1Nc1nc(C(F)(F)F)ccc1C(=O)N/N=C/c1ccc([N+](=O)[O-])cc1` ; returns value.
Return: -33.6% (active)

Enquiry: Param readout= growth; system= HOP-62 NSCLC; entry= COc1ccc(/C=C2\C(=O)N=C3N2NC(c2cc(Br)ccc2O)C=C(C)N3c2ccccc2)cc1 (stereo unspecified) ; returns value.
Return: 108% (inactive)

Enquiry: Param readout= growth; system= HOP-62 NSCLC; entry= CC(C)NC1CCC(Nc2ccnc3cc(Cl)ccc23)CC1 (stereo unspecified) ; returns value.
Return: 78.1% (inactive)

Enquiry: Param readout= growth; system= HOP-62 NSCLC; entry= `COc1ccc2c3c([nH]c2c1)C(=O)c1nc(C)ccc1C3=O` ; returns value.
Return: 46.6% (inactive)

Enquiry: Param readout= growth; system= HOP-62 NSCLC; entry= `CN(C)CCNC(=O)c1cccc(-c2cnc3ccc(-c4ccc5c(c4)OCO5)nn23)c1` ; returns value.
Return: 88.4% (inactive)

Enquiry: Param readout= growth; system= HOP-62 NSCLC; entry= N#CC1=C(c2ccc(Cl)cc2)Nc2c(c(-c3ccc(Cl)cc3)nn2-c2ccccc2)C12C(=O)Nc1ccc(Cl)cc12 (stereo unspecified) ; returns value.
Return: 65% (inactive)

Enquiry: Param readout= growth; system= HOP-62 NSCLC; entry= `COC(=O)/C=C1/SC(=Nc2ccc(C)cc2)N(CCc2c[nH]c3ccc(O)cc23)C1=O` ; returns value.
Return: 55.6% (inactive)

Enquiry: Param readout= growth; system= HOP-62 NSCLC; entry= `O=C(O)c1[nH]c(=O)[nH]c(=O)c1[N+](=O)[O-]` ; returns value.
Return: 104% (inactive)

Enquiry: Param readout= growth; system= HOP-62 NSCLC; entry= `NC(=O)c1c(NC(=O)c2ccccc2)sc2c1CCC(=O)C2` ; returns value.
Return: 45.1% (inactive)

Enquiry: Param readout= growth; system= HOP-62 NSCLC; entry= CCCCCCCCCCCCCCCC(N)c1ccccc1 (stereo unspecified) ; returns value.
Return: -33.9% (active)

Enquiry: Param readout= growth; system= HOP-62 NSCLC; entry= O=S(=O)(Nc1ccccc1)c1ccc(C2CC3(Cl)C(Cl)=C(Cl)C2(Cl)C3(Cl)Cl)cc1 (stereo unspecified) ; returns value.
Return: 51.4% (inactive)

Enquiry: Param readout= growth; system= HOP-62 NSCLC; entry= `CCOC(=O)C1=NN(c2ccccc2)C(=O)/C1=C\N1C(=O)CC(=O)NC1=S` ; returns value.
Return: 90.1% (inactive)

Enquiry: Param readout= growth; system= HOP-62 NSCLC; entry= `O=C1/C(=C/c2ccc(F)cc2)COc2ccc(O)cc21` ; returns value.
Return: 104% (inactive)

Enquiry: Param readout= growth; system= HOP-62 NSCLC; entry= `O=C1c2cccnc2C(=O)c2c1c(C(=O)NCCCN1CCCCC1)c1ccccn21` ; returns value.
Return: -37.5% (active)

Enquiry: Param readout= growth; system= HOP-62 NSCLC; entry= `CC(C)(C)n1cc(-c2ccnc(NCCNS(=O)(=O)c3cccc4ccccc34)c2)c(-c2cccc(F)c2)n1` ; returns value.
Return: 26.4% (inactive)

Enquiry: Param readout= growth; system= HOP-62 NSCLC; entry= `CCn1c(SCC(=O)c2ccc(Br)cc2)nnc1-c1ccncc1` ; returns value.
Return: 109% (inactive)

Enquiry: Param readout= growth; system= HOP-62 NSCLC; entry= `O=c1oc2c(cnc3ccccc32)cc1-c1ccsc1` ; returns value.
Return: 92.3% (inactive)

Enquiry: Param readout= growth; system= HOP-62 NSCLC; entry= `CO/N=C(/C)c1ccc(NC(=O)CSc2nnc(-c3ccncc3)n2-c2ccccc2)cc1` ; returns value.
Return: 39.2% (inactive)

Enquiry: Param readout= growth; system= HOP-62 NSCLC; entry= COc1ccc(/C=N/C2=C(C#N)C(c3cccc(Cl)c3)c3c(ccc4ccccc34)O2)cc1 (stereo unspecified) ; returns value.
Return: 49.5% (inactive)

Enquiry: Param readout= growth; system= HOP-62 NSCLC; entry= OCCCC1CCN(C(Cc2ccccc2)c2ccccc2)CC1 (stereo unspecified) ; returns value.
Return: 87.2% (inactive)

Enquiry: Param readout= growth; system= HOP-62 NSCLC; entry= `N#Cc1cccc(-c2c(-c3ccc4ccccc4c3)oc3ccccc3c2=O)c1` ; returns value.
Return: 41.5% (inactive)

Enquiry: Param readout= growth; system= HOP-62 NSCLC; entry= `CC1=Nc2cnc(Nc3ccc(OCCN4CCCC4)cc3)nc2Nc2ccccc21` ; returns value.
Return: 86.4% (inactive)

Enquiry: Param readout= growth; system= HOP-62 NSCLC; entry= `CN1C(=O)/C(=C/c2ccc(C(=O)Nc3ncc(Cc4ccc(Cl)cc4)s3)cc2)SC1=S` ; returns value.
Return: 49.7% (inactive)

Enquiry: Param readout= growth; system= HOP-62 NSCLC; entry= `O=C(/C=C/c1cccs1)c1ccc(Cl)nc1` ; returns value.
Return: 94.9% (inactive)

Enquiry: Param readout= growth; system= HOP-62 NSCLC; entry= `Cc1ccc(-c2cc(-c3ccc(Cl)cc3)nc(NC(=O)c3cccnc3)n2)cc1` ; returns value.
Return: 114% (inactive)

Enquiry: Param readout= growth; system= HOP-62 NSCLC; entry= `CCCCCCCCCCCCCCCCCCOc1ccccc1CC(=O)OCC[N+]1(C)CCCC1` ; returns value.
Return: 53.5% (inactive)

Enquiry: Param readout= growth; system= HOP-62 NSCLC; entry= `O=C(Cn1cc(CN2C(=O)c3ccccc3S2(=O)=O)nn1)Nc1nc2ccccc2s1` ; returns value.
Return: 89.5% (inactive)

Enquiry: Param readout= growth; system= HOP-62 NSCLC; entry= `CC(C)=CCC[C@](C)(O)[C@H]1CC[C@]2(C)[C@@H]1CC[C@@H]1[C@@]3(C)Cc4nccnc4C(C)(C)[C@@H]3CC[C@]12C` ; returns value.
Return: 94.6% (inactive)

Enquiry: Param readout= growth; system= HOP-62 NSCLC; entry= `COc1ccc(-c2cn(-c3cc(OC)c(OC)c(OC)c3)c(=O)n2C(C)=O)cc1` ; returns value.
Return: 83.7% (inactive)

Enquiry: Param readout= growth; system= HOP-62 NSCLC; entry= `COc1ccc(Cc2cc(-c3ccccc3)nn(Cc3ccccc3)c2=O)cc1OC` ; returns value.
Return: 69.1% (inactive)

Enquiry: Param readout= growth; system= HOP-62 NSCLC; entry= `CC(C)(C)n1cc(-c2ccnc(NCCNS(=O)(=O)c3cccc(F)c3)c2)c(-c2ccccc2)n1` ; returns value.
Return: 101% (inactive)

Enquiry: Param readout= growth; system= HOP-62 NSCLC; entry= C1=CN2CC(c3ccccc3)=NNC2c2ccccc21 (stereo unspecified) ; returns value.
Return: 72.4% (inactive)

Enquiry: Param readout= growth; system= HOP-62 NSCLC; entry= `O=C(NCc1ccccc1)Nc1ccccc1CNc1nc(Nc2ccc(OCCN3CCCC3)cc2)ncc1Cl` ; returns value.
Return: 86.2% (inactive)

Enquiry: Param readout= growth; system= HOP-62 NSCLC; entry= `COc1ccc(/C=C2\COc3ccc(O)c(O)c3C2=O)cc1` ; returns value.
Return: 10.8% (inactive)

Enquiry: Param readout= growth; system= HOP-62 NSCLC; entry= CSc1nnc(-c2cnn3c2NC(c2ccccc2)C3)n1-c1ccc(C(F)(F)F)cc1 (stereo unspecified) ; returns value.
Return: 61.1% (inactive)

Enquiry: Param readout= growth; system= HOP-62 NSCLC; entry= N#CC1C=CN(CC(N)=O)c2ccc3cccnc3c21 (stereo unspecified) ; returns value.
Return: 95.2% (inactive)

Enquiry: Param readout= growth; system= HOP-62 NSCLC; entry= `C=CC(=O)NCc1ccc(Nc2nccc(-c3ccc(N4CCCC4)c(C#N)c3)n2)cc1` ; returns value.
Return: 17.1% (inactive)

Enquiry: Param readout= growth; system= HOP-62 NSCLC; entry= `CC(C)(C)[Si](C)(C)O[C@H]1C(=O)C=CN2CC=C[C@@H]12` ; returns value.
Return: 111% [100 µM] (inactive)

Enquiry: Param readout= growth; system= HOP-62 NSCLC; entry= `CCOC(=O)C#Cc1c(C(=O)OCC)nnn1[C@@H]1O[C@H](CO)[C@H]2OC3(CCCCC3)O[C@H]21` ; returns value.
Return: 110% (inactive)

Enquiry: Param readout= growth; system= HOP-62 NSCLC; entry= `Brc1c2c(c(Br)c3ccccc13)CCCC2` ; returns value.
Return: 84% (inactive)
